Quick reference: TGI of the listed items.
- Tested on: NCI/ADR-RES ovarian
- assay.details: NCI tumour cell line growth inhibition, 48 h

{"compound": "CSc1nc(Br)nc2c1ncn2C1CC(Oc2ccc(C)cc2)C(COc2ccc(C)cc2)O1 (centres undefined)", "TGI": "> 100 µM"}
{"compound": "CCCCCCN1C(=O)CN=C1Nc1ccc2cc3ccc(NC4=NCC(=O)N4CCCCCC)cc3nc2c1", "TGI": "15 µM"}
{"compound": "CC(C)n1nc(C#Cc2cccc(NC(=O)c3cccc(C(F)(F)F)c3)c2)c2c(N)ncnc21", "TGI": "> 100 µM"}
{"compound": "C=C(C)[C@]12CC(C)C34OC(/C=C\\C=C\\CCCCCCCCC)(O[C@@H]1[C@@H]3[C@@H]1O[C@]1(CO)[C@@H](O)[C@]1(O)C(=O)C(C)=C[C@@H]41)O2 (some centres undefined)", "TGI": "45.2 µM"}

====

- Tested on: CCRF-CEM leukemia
- assay.details: NCI tumour cell line growth inhibition, 48 h; in the data active = GI50 below about 0.43 µM; inactive = the rest
Outcome codes: active, inactive

{"smiles.str": "Cn1c(COC(=O)NCCN2CCOCC2)nc2c(N3CCOCC3)nc(-c3ccccc3)nc21", "label": "active"}
{"smiles.str": "C=CC[PH+](c1ccccc1)c1ccccc1.C=CC[PH+](c1ccccc1)c1ccccc1.[Cl][Pt][Cl]", "label": "inactive"}
{"smiles.str": "CC(=O)Nc1ccc(-n2cnc3cc(-c4ccc(OCCN5CCCCC5)cc4)ccc32)cc1", "label": "inactive"}
{"smiles.str": "CC(=O)N[C@@H]1CCC[C@H](C(=O)Nc2cc(-c3cnn4c3CC(C)(C)C4)c(Cl)cn2)C1", "label": "active"}
{"smiles.str": "O=[N+]([O-])c1cccc(-c2ncc(-c3ccc(Cl)cc3Cl)[nH]2)c1", "label": "inactive"}
{"smiles.str": "CCSc1nc(N)c2cnn(C)c2n1", "label": "inactive"}
{"smiles.str": "C#Cc1ccc(-n2c(/C=C/c3cc(OC)c(OC)c(OC)c3)nc3ncccc3c2=O)cc1", "label": "inactive"}
{"smiles.str": "Cc1csc(Nc2nc(-c3cccc(Cl)c3)nc(C(Cl)(Cl)Cl)n2)n1", "label": "inactive"}
{"smiles.str": "CCN(CC)CCOc1ccc(C2=C(c3ccccc3)CCc3cc(OC)ccc32)cc1", "label": "inactive"}
{"smiles.str": "Cn1cc(-c2nn3cc(-c4cccs4)nc3s2)c2cc(F)ccc21", "label": "inactive"}

====

- System: A549 NSCLC
- assay.details: NCI tumour cell line growth inhibition, 48 h
Quick reference: TGI of the listed items.
quantity.measured: TGI

{"compound": "O=C1N2CCc3c([nH]c4ccccc34)C23CC2CCCC12S3 (stereo not given)", "quantity.measured": "TGI", "meas.value": "> 50 µM"}
{"compound": "Nc1ccc2c(c1)CN1C(=O)c3ccccc3C1=N2", "quantity.measured": "TGI", "meas.value": "> 125 µM"}
{"compound": "Cc1cc2c(cc1Cl)SC1=NN(C)C(c3ccccc3O)N1S2(=O)=O (stereo not given)", "quantity.measured": "TGI", "meas.value": "> 100 µM"}
{"compound": "CC[C@@]1(O)C(=O)OCc2c1cc1n(c2=O)Cc2cc3c(NC(C)=O)c(O)ccc3nc2-1", "quantity.measured": "TGI", "meas.value": "> 100 µM"}
{"compound": "C#Cc1cccc(Nc2ncnc3ccc(-c4cncc(NS(C)(=O)=O)c4)cc23)c1", "quantity.measured": "TGI", "meas.value": "14.9 µM"}
{"compound": "Cc1cnc2[nH]c(-c3ccccc3)cc(=O)c2c1", "quantity.measured": "TGI", "meas.value": "> 100 µM"}
{"compound": "C=CC1(CCC(Br)C(C)(C)Cl)CO1 (stereo not given)", "quantity.measured": "TGI", "meas.value": "> 10 µM"}
{"compound": "CSc1nc2c(ncn2C2OCC(O)C(O)C2O)c(=O)[nH]1 (stereo not given)", "quantity.measured": "TGI", "meas.value": "> 100 µM"}
{"compound": "CN1CCN(C(=S)SCN2C(=O)c3ccccc3S2(=O)=O)CC1", "quantity.measured": "TGI", "meas.value": "> 100 µM"}
{"compound": "O=[N+]([O-])c1cccc(-c2ncc(-c3ccc(Cl)cc3Cl)[nH]2)c1", "quantity.measured": "TGI", "meas.value": "> 56.9 µM"}
{"compound": "C/C=C\\C(CC(=O)O)CC(=O)NCCC1CN(S(=O)(=O)C(F)(F)F)c2ccccc21 (stereo not given)", "quantity.measured": "TGI", "meas.value": "> 100 µM"}
{"compound": "COC(=O)CNC(=O)/C=C/[C@H](O[Si](C)(C)C(C)(C)C)[C@H](/C=C/C(=O)NCC(=O)OC)O[Si](C)(C)C(C)(C)C", "quantity.measured": "TGI", "meas.value": "> 25 µM"}
{"compound": "Cc1cccc(N2CCN(S(=O)(=O)c3ccc(Cl)cc3)C2=N)c1C", "quantity.measured": "TGI", "meas.value": "> 100 µM"}
{"compound": "C=C(C)[C@@H]1CCC[C@]2(C(=O)O)CC[C@]3(C)[C@@H](CC[C@@H]4[C@@]5(C)C/C(=C/c6ccncc6)C(=O)C(C)(C)[C@@H]5CC[C@]43C)[C@@H]12", "quantity.measured": "TGI", "meas.value": "5.26 µM"}
{"compound": "Clc1ccccc1C1=NN(c2ccccc2)C2c3cc(Br)ccc3OCC12 (stereo not given)", "quantity.measured": "TGI", "meas.value": "> 100 µM"}
{"compound": "COc1cc2c(cc1OC)[C@H]1C(=O)c3cc4c(cc3[C@H]1N(C)C2=O)OCO4", "quantity.measured": "TGI", "meas.value": "> 100 µM"}
{"compound": "COC(=O)C1CCC(=NC2c3ccccc3-c3ccccc32)N1 (stereo not given)", "quantity.measured": "TGI", "meas.value": "> 100 µM"}
{"compound": "COc1cc(C2S/C(=C/c3ccccc3)C(=O)N2c2ccc(Cl)cc2)cc(OC)c1OC (stereo not given)", "quantity.measured": "TGI", "meas.value": "> 100 µM"}
{"compound": "C=C(CC1(CC(=C)c2ccc(C(=O)O)cc2)C(=O)N(C)C(=O)N(C)C1=O)c1ccc(C(=O)O)cc1", "quantity.measured": "TGI", "meas.value": "> 100 µM"}
{"compound": "Cc1nc(C(N)=S)sc1C(=O)CC(=O)C(=O)Nc1cccc(Cl)c1C", "quantity.measured": "TGI", "meas.value": "> 100 µM"}
{"compound": "CC(=O)Nc1ccc(-n2cnc3cc(-c4ccc(OCCN5CCCCC5)cc4)ccc32)cc1", "quantity.measured": "TGI", "meas.value": "5.74 µM"}
{"compound": "c1ccc(COc2ncccc2C2SCCCS2)cc1", "quantity.measured": "TGI", "meas.value": "> 100 µM"}
{"compound": "COc1ccc(S(=O)(=O)NCCNc2nccc(-c3c(-c4ccccc4)nc4sccn34)n2)cc1", "quantity.measured": "TGI", "meas.value": "> 100 µM"}
{"compound": "CCN(CC)CCOc1ccc(C2=C(c3ccccc3)CCc3cc(OC)ccc32)cc1", "quantity.measured": "TGI", "meas.value": "16.2 µM"}
{"compound": "COc1ccc(C[C@H]2COC(=O)[C@@H]2Cc2cc(OC)c(OC)c(OC)c2)cc1OC", "quantity.measured": "TGI", "meas.value": "> 100 µM"}
{"compound": "COc1cc(CC(=O)c2ccc3c(c2)OCO3)cc(OC)c1OC", "quantity.measured": "TGI", "meas.value": "> 100 µM"}
{"compound": "Fc1nc(F)nc(-c2c3ccccc3c3n2CCS3)n1", "quantity.measured": "TGI", "meas.value": "> 100 µM"}
{"compound": "c1csc(-c2ccc(-c3ccc(-c4cccs4)s3)s2)c1", "quantity.measured": "TGI", "meas.value": "> 100 µM"}
{"compound": "CC1(C)CC2(C)OC2C2(C1)N=NC(=Nc1ccccc1)O2 (stereo not given)", "quantity.measured": "TGI", "meas.value": "39.5 µM"}
{"compound": "COC1C(CO)OC(n2c3ccccc3c3c4c(c5c6ccccc6[nH]c5c32)C(=O)NC4=O)C(O)C1OC(=O)C(N)CCCCN (stereo not given)", "quantity.measured": "TGI", "meas.value": "> 50 µM"}
{"compound": "COc1ccccc1NC(=O)C(=O)C1C(=O)Nc2ccccc2S1=O (stereo not given)", "quantity.measured": "TGI", "meas.value": "> 100 µM"}
{"compound": "CCOC(=O)C1=C(c2ccccc2)N(Cc2ccccc2)C2(O)C=CC(=O)C3C(=O)N(c4ccccc4)C(=O)C132 (stereo not given)", "quantity.measured": "TGI", "meas.value": "11.4 µM"}
{"compound": "COC1=CC2(C=CC1=O)CCN=c1c(O)c3c(c(O)c12)=NC=N3 (stereo not given)", "quantity.measured": "TGI", "meas.value": "> 100 µM"}
{"compound": "COc1cc(OC)cc(N2CCN(C(=O)Nc3nc4cc(F)ccc4nc3OC)CC2)c1", "quantity.measured": "TGI", "meas.value": "> 100 µM"}
{"compound": "N#CC1(C#N)C2C=CC(C3CCC=C32)C1(C#N)C#N (stereo not given)", "quantity.measured": "TGI", "meas.value": "> 10 µM"}
{"compound": "O=C(CN=Cc1cccs1)CSC(c1ccccc1)c1ccccc1", "quantity.measured": "TGI", "meas.value": "76.1 µM"}
{"compound": "COc1cc(/C=C2\\C[C@H]3[C@@H]4CC=C5C[C@@H](N6CCCC6)CC[C@]5(C)[C@H]4CC[C@]3(C)[C@H]2OC(C)=O)cc(OC)c1OC", "quantity.measured": "TGI", "meas.value": "32 µM"}
{"compound": "CSc1nc(Br)nc2c1ncn2C1CC(Oc2ccc(C)cc2)C(COc2ccc(C)cc2)O1 (stereo not given)", "quantity.measured": "TGI", "meas.value": "> 100 µM"}
{"compound": "C=C1c2nc3ccccc3n2C=C(c2ccccc2)N1c1ccc(OC)cc1", "quantity.measured": "TGI", "meas.value": "> 100 µM"}
{"compound": "CC(=O)C1=C(O)/C(=C\\c2ccco2)OC1=O", "quantity.measured": "TGI", "meas.value": "> 10 µM"}

All values here come from PubChem BioAssay (NCI).
